Would you mind telling me the reported MIC values, Haemophilus parasuis of each entry?
# System: Haemophilus parasuis
# assay text: in vitro susceptibility, MIC by mini broth dilution
# Assay type: cell-based

| molecule | target or system | MIC values, Haemophilus parasuis |
| --- | --- | --- |
| CCCN1C[C@H](C)[C@@H](O)[C@](C)(O)[C@@H](CC)OC(=O)[C@H](C)[C@@H](O[C@H]2C[C@@](C)(OC)[C@](O)(CNCC3(C)CC(N)CC(C)(C)C3)[C@H](C)O2)[C@H](C)[C@@H](O[C@@H]2O[C@H](C)C[C@H](N(C)C)[C@H]2O)[C@](C)(O)C[C@H]1C (some centres unmarked) | Haemophilus parasuis | 0.5 ug/mi |
| CC[C@H]1OC(=O)[C@H](C)[C@@H](O[C@H]2C[C@@](C)(OC)[C@](O)(CNCCc3c[nH]c4ccccc34)[C@H](C)O2)[C@H](C)[C@@H](O[C@@H]2O[C@H](C)C[C@H](N(C)C)[C@H]2O)[C@](C)(O)C[C@@H](C)NC[C@H](C)[C@@H](O)[C@]1(C)O | Haemophilus parasuis | 2 ug/mi |
| CCCN1CC(C)C(O)C(C)(O)C(CC)OC(=O)C(C)C(OC2CC(C)(OC)C(O)(CNC(CO)CO)C(C)O2)C(C)C(OC2OC(C)CC(N(C)C)C2O)C(C)(O)CC1C (centres unmarked) | Haemophilus parasuis | 0.5 ug/mi |
| CCCN1C[C@H](C)[C@@H](O)[C@](C)(O)[C@@H](CC)OC(=O)[C@H](C)[C@@H](O[C@H]2C[C@@](C)(OC)[C@](O)(CNCc3cccc(OC)c3)[C@H](C)O2)[C@H](C)[C@@H](O[C@@H]2O[C@H](C)C[C@H](N(C)C)[C@H]2O)[C@](C)(O)C[C@H]1C [syzx-135] | Haemophilus parasuis | 0.5 ug/mi |

Please look at the items below and tell me MIC values, Haemophilus parasuis for each one, in order.
1. CCCN1C[C@H](C)[C@@H](O)[C@](C)(O)[C@@H](CC)OC(=O)[C@H](C)[C@@H](O[C@H]2C[C@@](C)(OC)[C@](O)(CNC(C)CCCN(CC)CC)[C@H](C)O2)[C@H](C)[C@@H](O[C@@H]2O[C@H](C)C[C@H](N(C)C)[C@H]2O)[C@](C)(O)C[C@H]1C (some centres unmarked)
2. CCCN1C[C@H](C)[C@@H](O)[C@](C)(O)[C@@H](CC)OC(=O)[C@H](C)[C@@H](O[C@H]2C[C@@](C)(OC)[C@](O)(CNCc3ccc(OC)cc3)[C@H](C)O2)[C@H](C)[C@@H](O[C@@H]2O[C@H](C)C[C@H](N(C)C)[C@H]2O)[C@](C)(O)C[C@H]1C

stdout:
0.25 ug/mi
0.25 ug/mi
